# SYSTEM UNDER TEST: T1, CD123 (protein in solution in the Octet affinity assay) (human, UniProt P26951 19-305, limits assumed)
# T1 construct: also called IL-3Rα; Interleukine-3 Receptor alpha
# T1 sequence (looked up): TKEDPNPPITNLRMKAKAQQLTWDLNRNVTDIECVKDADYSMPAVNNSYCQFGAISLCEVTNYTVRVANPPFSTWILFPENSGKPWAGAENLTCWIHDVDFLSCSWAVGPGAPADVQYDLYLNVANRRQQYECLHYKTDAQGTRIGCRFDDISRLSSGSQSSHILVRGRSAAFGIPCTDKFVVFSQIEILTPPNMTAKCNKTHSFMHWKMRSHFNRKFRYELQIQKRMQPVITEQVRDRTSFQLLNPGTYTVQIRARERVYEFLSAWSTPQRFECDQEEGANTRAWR
# TEST DESCRIPTION: BLI (Octet), antibody on streptavidin biosensor, CD123 in solution
OUTCOME MEASURE: koff (s⁻¹)
Express your answer in s⁻¹, writing the number without its unit.

BINDER	koff, s⁻¹
15E11B7 (antibody, V domains shown, Mouse hybridoma monoclonal antibody; also called AB6) VH: EVQLEQSGPELVKPGDSVKISCKASGYSFTGYFMNWVKQSHGKSLEWIGRINPYNDYTFNNQKFKDKATLTVDKSSSTAHMELLSLTSEDSAVYYCGGGVRGAWFAFWGQGTLVTVSE VL: DIVLTQSTTSLAVSLGQRATISCRASKSVSTSGYNYMHWYQQKPGQPPKLLIYLASNLESGVPARFSGSGSGTDFTLNIHPVEEEDAATYYCQHSADLPYTFGGGTKLEIKR	0.000826

Query binder follows.
response.value for 14G12D7 (antibody, V domains shown, Mouse hybridoma monoclonal antibody; also called AB4) VH: EVQLQESGPGLVKPSQSLSLTCTVTGYSVTSDYAWNWIRQFPGNKLEWMGYIIYSGTTSYNPSLKSRISITRDTSKNQFFLQLNSVTTEDTATYYCTRGVDYWGQGTTLTVSS VL: DIVLTQSPAIMSASPGEKVTMTCRASSSVRSSYLHWYQQKSGASPKLWIYSTSNLASGVPARFSGSGSGTSYSLTISSVEAEDAATYYCLQFSGYPFTFGGGTKLEIKR (field: koff) = 0.000325
